target: human glucocorticoid receptor (Homo sapiens); construct: purified human recombinant full-length glucocorticoid receptor (2 nM); purchased Invitrogen Part #2893; experiment: Glucocorticoid Receptor Binding Assay (I), fluorescence polarization competitor kit; conditions: purified human recombinant full-length GR, Fluormone GS Red
Sequence (P04150 whole entry): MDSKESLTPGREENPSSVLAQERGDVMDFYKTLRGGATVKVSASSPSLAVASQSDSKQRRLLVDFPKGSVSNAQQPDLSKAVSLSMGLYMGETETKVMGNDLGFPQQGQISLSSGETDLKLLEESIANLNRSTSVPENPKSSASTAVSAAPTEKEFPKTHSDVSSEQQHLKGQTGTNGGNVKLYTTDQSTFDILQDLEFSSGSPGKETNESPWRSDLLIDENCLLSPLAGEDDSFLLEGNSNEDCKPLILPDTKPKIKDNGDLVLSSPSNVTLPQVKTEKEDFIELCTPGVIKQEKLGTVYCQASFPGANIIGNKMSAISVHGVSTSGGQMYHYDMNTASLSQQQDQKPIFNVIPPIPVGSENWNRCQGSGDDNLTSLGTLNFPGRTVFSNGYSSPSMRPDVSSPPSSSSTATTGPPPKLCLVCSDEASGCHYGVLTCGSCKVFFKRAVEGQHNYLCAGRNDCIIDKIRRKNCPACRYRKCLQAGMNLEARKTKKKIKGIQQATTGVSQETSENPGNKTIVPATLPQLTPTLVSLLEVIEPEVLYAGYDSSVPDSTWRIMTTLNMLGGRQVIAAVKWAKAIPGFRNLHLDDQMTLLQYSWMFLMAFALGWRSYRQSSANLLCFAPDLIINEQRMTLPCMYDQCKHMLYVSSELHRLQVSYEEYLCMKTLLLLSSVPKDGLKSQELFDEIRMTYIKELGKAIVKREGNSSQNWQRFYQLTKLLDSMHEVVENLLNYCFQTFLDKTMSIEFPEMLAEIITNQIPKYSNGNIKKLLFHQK
assay endpoint: Ki (nM)

> print(dat)
                                   compound  obs.value
1  CC(C(=O)Nc1nncs1)C(c1ccccc1)c1ccc(-c2ccc(C(=O)N(C)C)cc2)s1 (single isomer, unassigned) [Example 138]        360
2  CC(C)(C(=O)Nc1nncs1)C(c1ccccc1)c1ccc(Br)s1 (stereo not shown) [Example 3]       3.66
3  CNC(=O)c1ccc(-c2ccc([C@H](c3cccc(F)c3)C(C)(C)C(=O)Nc3nncs3)s2)cc1       1.52
4  CN(C)C(=O)c1ccc(-c2ccc(C(c3cc(F)cc(F)c3)C(C)(C)C(=O)Nc3nncs3)s2)cc1Cl (stereo not shown)       4.59
5  C[C@H](C(=O)Nc1nncs1)[C@@H](c1cccc(F)c1)c1ccc(-c2ccc(C(=O)N(C)C)c(Cl)c2)s1       7.16
6  CC(C(=O)Nc1nncs1)C(c1ccccc1)c1ccc(-c2ccc(C(=O)N(C)C)cc2)s1 (single isomer, unassigned) [Example 139]        259
7  CC(C)(C(=O)Nc1nccs1)C(c1ccccc1)c1ccc(Br)s1 (stereo not shown)       6.97
